The measurements presented in this section are drawn from paper PMC10587126.

Please respond with reported Peptide remaining for every item in the list.
# protocol text: Resistance to proteolytic degradation in fetal bovine serum
# Type: in vitro ADME
# particulars: 25% fetal bovine serum in water, 37 °C, LC peak area, time 0 = 100; 1 h; replicate 3
No end group written: not given here.
Output: the number by itself.

Lookup: Reported Peptide remaining for FLGSLWRKAGTVF-NH2 [VD] : what is it?
Found: 49.4

Lookup: Reported Peptide remaining for ILGTILGLLKGL-NH2 [Protonectin, reference compound] : what is it?
Found: 0.0

Lookup: Reported Peptide remaining for FLGALWNVAKSVF-NH2 [VmCT1, reference compound] : what is it?
Found: 7.4

Lookup: Reported Peptide remaining for GLGALLNVIKSGL-NH2 [AV] : what is it?
Found: 0.0

Lookup: Reported Peptide remaining for FLPLLWRVASGVF-NH2 [VT] : what is it?
Found: 0

Lookup: Reported Peptide remaining for FLPLIGRVLSGIL-NH2 [Temporin A, reference compound] : what is it?
Found: 0

Lookup: Reported Peptide remaining for FLGAIGNVLKSIL-NH2 [TV] : what is it?
Found: 0

Lookup: Reported Peptide remaining for ILGAILNVLKSLG-NH2 [PV] : what is it?
Found: 0

Lookup: Reported Peptide remaining for GLLKRIKTLL-NH2 [Anoplin, reference compound] : what is it?
Found: 19.1

Lookup: Reported Peptide remaining for FLGTLWGGAKGVF-NH2 [VP] : what is it?
Found: 11.8

Lookup: Reported Peptide remaining for SLLSLIRKLIT-NH2 [Decoralin, reference compound] : what is it?
Found: 0.0

Lookup: Reported Peptide remaining for SLGALINVLKSGG-NH2 [DV] : what is it?
Found: 0.0
